# procedure.text: self-splicing fitness, log relative to wild type (ln ratio); higher = more splicing; Tetrahymena group I intron in knt gene, E. coli kanamycin selection, DiMSum; sequences stand for … in CUCUCU…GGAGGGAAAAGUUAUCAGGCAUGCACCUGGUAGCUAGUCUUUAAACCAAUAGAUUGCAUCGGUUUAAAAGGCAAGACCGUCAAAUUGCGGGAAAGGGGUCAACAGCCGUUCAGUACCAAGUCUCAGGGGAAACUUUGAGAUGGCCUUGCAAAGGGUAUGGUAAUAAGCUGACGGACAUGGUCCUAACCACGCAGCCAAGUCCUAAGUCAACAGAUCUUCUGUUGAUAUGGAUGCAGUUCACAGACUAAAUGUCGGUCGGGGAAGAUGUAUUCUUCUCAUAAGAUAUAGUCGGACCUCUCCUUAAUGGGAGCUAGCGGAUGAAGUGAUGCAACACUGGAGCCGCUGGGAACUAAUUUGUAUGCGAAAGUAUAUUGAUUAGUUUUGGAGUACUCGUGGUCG;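 also: selection with 25 µg/mL kanamycin versus none on LB agar overnight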
# condition.context: 30 °C
value.type: self-splicing fitness (ln)
Just the number, please, no unit after it.

INSERT INTO assay_data (sequence_code, observed_value) VALUES
  ('AAAAAGCAAUAUUACGAUUU', 0.149),
  ('CGGAAGCAAUAUUACGGUCU', -1.38),
  ('CAUAAGCAAUAUUACGAUUG', -2.62);

Reported self-splicing fitness (ln), sequence "GCCUAGCAAUAUUACGUGGA" : ____
-0.477

Tell me the measured self-splicing fitness (ln) of "UGUAAGCAAUAUUACGAGAU" , please.
-3.71

Endpoint output: self-splicing fitness (ln) of "CACGAGCAAUAUUACGGGCU" . Value?
-4.17

* * *

# procedure.text: self-splicing fitness, log relative to wild type (ln ratio); higher = more splicing; Tetrahymena group I intron in knt gene, E. coli kanamycin selection, DiMSum; sequences stand for … in CUCUCU…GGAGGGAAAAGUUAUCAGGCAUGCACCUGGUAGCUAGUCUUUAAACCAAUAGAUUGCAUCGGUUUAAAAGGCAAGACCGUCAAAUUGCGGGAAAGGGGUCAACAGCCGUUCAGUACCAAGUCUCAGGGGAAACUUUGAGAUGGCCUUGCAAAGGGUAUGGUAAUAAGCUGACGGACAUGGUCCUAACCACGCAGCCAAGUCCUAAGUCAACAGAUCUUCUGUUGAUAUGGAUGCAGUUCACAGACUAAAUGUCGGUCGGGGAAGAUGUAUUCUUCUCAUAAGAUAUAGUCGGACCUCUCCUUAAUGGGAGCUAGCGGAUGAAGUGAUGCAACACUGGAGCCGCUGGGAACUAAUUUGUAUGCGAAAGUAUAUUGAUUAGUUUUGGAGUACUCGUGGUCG
# condition.context: 30 °C
value.type: self-splicing fitness (ln)
The response must contain the number and no unit.

Worked examples follow.
INSERT INTO assay_data (sequence_code, value_type, observed_value) VALUES
  ('GGUGAGCAAUAUUACGAUAU', 'self-splicing fitness (ln)', -2.31),
  ('AGUUAGCAAUAUUACGGGAC', 'self-splicing fitness (ln)', -3.33),
  ('UUCUAGCAAUAUUACGCUUC', 'self-splicing fitness (ln)', -2.8),
  ('GAGGAGCAAUAUUACGCGCG', 'self-splicing fitness (ln)', -2.81),
  ('CUGAAGCAAUAUUACGAGCG', 'self-splicing fitness (ln)', 0.242),
  ('GAAAAGCAAUAUUACGACAU', 'self-splicing fitness (ln)', -0.184),
  ('GGCGAGCAAUAUUACGUAUU', 'self-splicing fitness (ln)', -2.29),
  ('GUUAAGCAAUAUUACGGCGG', 'self-splicing fitness (ln)', -2.8);

As a next step, examine the sequence that follows.
Field request: self-splicing fitness (ln) | item: "ACUUAGCAAUAUUACGCACG"
-1.55
